- assayed target: T1, recombinant rat MASP1 active protease (amino acids 302-704, C-terminal His Tag) (rat, UniProt Q8CHN8 302-704)
- T1 sequence: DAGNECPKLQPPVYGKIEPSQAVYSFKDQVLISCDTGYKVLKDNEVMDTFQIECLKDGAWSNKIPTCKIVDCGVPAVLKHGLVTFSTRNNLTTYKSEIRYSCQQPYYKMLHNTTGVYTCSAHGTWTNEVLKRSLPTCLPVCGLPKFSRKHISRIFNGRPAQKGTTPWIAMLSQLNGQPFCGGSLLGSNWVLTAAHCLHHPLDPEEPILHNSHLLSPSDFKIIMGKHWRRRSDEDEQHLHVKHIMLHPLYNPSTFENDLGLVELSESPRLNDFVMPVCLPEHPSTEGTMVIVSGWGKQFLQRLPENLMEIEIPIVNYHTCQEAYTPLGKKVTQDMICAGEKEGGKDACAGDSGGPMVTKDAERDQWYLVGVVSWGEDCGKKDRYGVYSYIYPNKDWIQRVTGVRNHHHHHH
- test description: cell-based or functional assay
Numbered stars: 1 amine (or outer) side, 2 acyl side, 3 side chain; on linkers, the order of the positions; unused ones are H or OH. Bridge positions count the residues as written; N and C are the ends. Square brackets hold non-standard residues; d marks the D form. Ends that are not written are not given here. (N-Benzyl)D = (2S)-2-Amino-4-(benzylamino)-4-oxobutanecarboxylic acid, O=C(C[C@H](N[*:1])C(=O)[*:2])NCc1ccccc1; Oic = O=C(O)[C@@H]1C[C@@H]2CCCC[C@@H]2N1; PEG8 = NCCOCCOCCOCCOCCOCCOCCOCCOCCC(=O)O; Pro‑D2 = L-proline (3,4-2H), deuterated; tBuAla = CC(C)(C)C[C@H](N)C(=O)O; Pen = CC(C)(S)[C@H](N)C(=O)O; NMeA = CN[C@@H](C)C(=O)O; Sar = CNCC(=O)O

binder	rat MASP1 IC50 (nM)
AICSRS[tBuAla]P[Oic]I[Pen]IPD-NH2 (disulfide 3-11; N-terminus assumed; SMILES CC[C@H](C)[C@H](NC(=O)[C@H](C)N)C(=O)N[C@H]1CSSC(C)(C)[C@@H](C(=O)N[C@H](C(=O)N2CCC[C@H]2C(=O)N[C@@H](CC(=O)O)C(N)=O)[C@@H](C)CC)NC(=O)[C@H]([C@@H](C)CC)NC(=O)[C@@H]2C[C@@H]3CCCC[C@@H]3N2C(=O)[C@@H]2CCCN2C(=O)[C@H](CC(C)(C)C)NC(=O)[C@H](CO)NC(=O)[C@H](CCCNC(=N)N)NC(=O)[C@H](CO)NC1=O) [Example 108: AIC+SRS-((tBu)A)-P-(Oic)-I-(Pen)+IPD-NH2]	11
[NMeA]ICSRSLP[Oic]I[Pen]IP[(N-Benzyl)D]-NH2 (disulfide 3-11) [Example 462: ((N-Me)A)-IC+SRSLP-(Oic)-I-(Pen)+IP-((N-Benzyl)D)-NH2]	160
[Sar]ICSRSLP[Oic]I[Pen]IPD[PEG8]-NH2 (disulfide 3-11; N-terminus assumed; SMILES CC[C@H](C)[C@H](NC(=O)CNC)C(=O)N[C@H]1CSSC(C)(C)[C@@H](C(=O)N[C@H](C(=O)N2CCC[C@H]2C(=O)N[C@@H](CC(=O)O)C(=O)NCCOCCOCCOCCOCCOCCOCCOCCOCCC(N)=O)[C@@H](C)CC)NC(=O)[C@H]([C@@H](C)CC)NC(=O)[C@@H]2C[C@@H]3CCCC[C@@H]3N2C(=O)[C@@H]2CCCN2C(=O)[C@H](CC(C)C)NC(=O)[C@H](CO)NC(=O)[C@H](CCCNC(=N)N)NC(=O)[C@H](CO)NC1=O) [Example 141: ((N-Me)G)-IC+SRSLP-(Oic)-I-(Pen)+IPD-(PEG8(28 atoms))-NH2]	140
AICSRSL[Pro‑D2][Oic]I[Pen]IPD-OH (disulfide 3-11) [Example 142: AIC+SRSL-(Pro-D2)-(Oic)-I-(Pen)+IPD-OH]	10.9
[Sar]ICSRSLPPICIPD-OH (disulfide 3-11; N-terminus assumed; SMILES CC[C@H](C)[C@H](NC(=O)CNC)C(=O)N[C@H]1CSSC[C@@H](C(=O)N[C@H](C(=O)N2CCC[C@H]2C(=O)N[C@@H](CC(=O)O)C(=O)O)[C@@H](C)CC)NC(=O)[C@H]([C@@H](C)CC)NC(=O)[C@@H]2CCCN2C(=O)[C@@H]2CCCN2C(=O)[C@H](CC(C)C)NC(=O)[C@H](CO)NC(=O)[C@H](CCCNC(=N)N)NC(=O)[C@H](CO)NC1=O) [Example 281: ((N-Me)G)-IC+SRSLPPIC+IPD-OH]	270
